The measurements presented in this section are drawn from PubChem BioAssay (EPA / NIEHS).

- Read-out: Tumor necrosis factor (Homo sapiens) (UniProt P01375)
- Sequence (P01375 whole entry, looked up): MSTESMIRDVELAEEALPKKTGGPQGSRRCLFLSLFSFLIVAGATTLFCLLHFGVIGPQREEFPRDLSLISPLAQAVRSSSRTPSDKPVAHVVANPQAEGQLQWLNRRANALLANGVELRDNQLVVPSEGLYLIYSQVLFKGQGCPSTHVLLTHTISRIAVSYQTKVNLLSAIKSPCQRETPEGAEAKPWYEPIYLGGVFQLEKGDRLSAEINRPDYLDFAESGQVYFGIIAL
- assayNotes: BSK_LPS_TNFa: BioMAP Diversity Plus: LPS Assay for Tumour Necrosis Factor alpha (TNFa) Biomarker Activity (AID 2283085);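 on AC50: TNFa protein level quantified by ELISA in the co-culture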
- experimentalContext: primary human HUVEC with PBMC; actives raise or lower the signal
The source made the active and inactive calls. How the source made its calls: active means hit-call score of the fitted dose curve at least 0.9, where 1 is the maximum; inactive means score below 0.9.

{"columns": ["molecule", "AC50"],
 "data": [
  ["CCCCCCCC(=O)O", "inactive"],
  ["CC(=O)NC1(c2cccc(F)c2)CCN(CC[C@@]2(c3ccc(Cl)c(Cl)c3)CN(c3ccccc3)C(=O)CO2)CC1", "inactive"],
  ["COCC(C)OCC(C)O (stereo unspecified)", "inactive"],
  ["CCN(CC)CCNc1ccc(CNC=O)c2sc3ccc(OC)cc3c(=O)c12", "17.8 µM (active)"],
  ["COCC(C)O (stereo unspecified)", "inactive"],
  ["Cc1cc(CCN2CCN(c3nsc4ccccc34)CC2)cc2c1NC(=O)CC2(C)C", "8.98 µM (active)"],
  ["Oc1cccc(O)c1", "inactive"],
  ["N#C[C@@H]1CC(F)(F)CN1C(=O)CNC1CC2CCC(C1)N2c1ncccn1 (stereo partly specified)", "inactive"],
  ["Cc1cc(C)c(O)c(C)c1", "0.352 µM (active)"],
  ["CCC(=C(c1ccc(O)cc1)c1ccc(OCCN(C)C)cc1)c1ccccc1", "13.6 µM (active)"],
  ["CCCCC(CC)COC(=O)CCCCC(=O)OCC(CC)CCCC (stereo unspecified)", "3.97 µM (active)"],
  ["ClC1=C(Cl)C(Cl)(Cl)C(Cl)=C1Cl", "18.4 µM (active)"],
  ["O=[N+]([O-])c1ccc(O)cc1", "inactive"],
  ["CC1=C(/C=C/C(C)=C/C=C/C(C)=C/C(=O)O)C(C)(C)CCC1", "0.358 µM (active)"],
  ["CCCCCCCCC(=O)O", "inactive"],
  ["NC(=O)N1C(=O)C(C(=O)c2cc(Cl)cs2)c2cc(F)c(Cl)cc21 (stereo unspecified)", "inactive"],
  ["CCCCCCC(=O)O", "inactive"],
  ["CC(C)CCCCCCOC(=O)CCCCC(=O)OCCCCCCC(C)C", "inactive"],
  ["CCCOc1sc(C(=O)N2CCC(c3cc(CN)ccc3F)CC2)c(C)c1Br", "13.4 µM (active)"],
  ["FC(F)(I)C(F)(F)C(F)(F)C(F)(F)C(F)(F)C(F)(F)I", "20.2 µM (active) [middle of 5 runs]"],
  ["C=C(C)C(=O)OCCC(F)(F)C(F)(F)C(F)(F)C(F)(F)C(F)(F)C(F)(F)F", "inactive"],
  ["O=C(O)Cc1cc(I)c(Oc2cc(I)c(O)c(I)c2)c(I)c1", "17.4 µM (active)"],
  ["COC(=O)CCCCC(=O)OC", "inactive"],
  ["NCC(F)(F)C(F)(F)C(F)(F)C(F)(F)C(F)(F)C(F)(F)C(F)(F)F", "inactive"],
  ["CC(=O)CC(C)(C)O", "inactive"],
  ["CCCCCCCCOC(=O)CCCCCCCCC(=O)OCCCCCCCC", "inactive"]
]}

* * *

- assayNotes: TOX21_p53_BLA_p2_viability: Viability Assessment in the Tox21 HCT-116 p53 Agonism Beta-lactamase Assay, Phase 2 (AID 2283591);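 further: compound exposure lasted 16 h at 37 °C; actives lower the ATP signal meaning cytotoxicity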
- Excerpt: TOX21_p53_BLA_p2 is a cell-based, single-readout assay that uses HCT116, a human intestinal cell line, […] in a 1536-well plate.TOX21_p53_BLA_p2_viability is an assay readout measuring cellular ATP content and detected with CellTiter-Glo Luciferase-coupled ATP quantitation.TOX21_p53_BLA_p2_viability used a type of viability reporter where loss-of-signal activity can be used to understand changes in the cell viability. […]
Inconclusive results are not listed. Calls of active or inactive are those of the source. Rule for the calls: active = hit-call score of the fitted dose curve at least 0.9, where 1 is the maximum; inconclusive = response in the unintended direction; inactive = score below 0.9.
Possible outcomes: label 1 = active, label 0 = inactive

{"columns": ["compound", "assignedLabel"],
 "data": [
  ["CC(C)(C)c1cccc(C(C)(C)C)c1O", "label 0"],
  ["CC(C)(C)c1cc(C(C)(C)C)c(O)c(C(C)(C)C)c1", "label 0"],
  ["CCOC(=O)CC(O)(CC(=O)OCC)C(=O)OCC", "label 0"],
  ["CC(C)CCCCCCOC(=O)CCCCC(=O)OCCCCCCC(C)C", "label 0"],
  ["CCCCC(CC)COC(=O)CCCCC(=O)OCc1ccccc1 (centres undefined)", "label 0"],
  ["CCCCCCCCCCCCN1CCCC1=O", "label 0"],
  ["CC(C)(C)CC(C)(C)c1ccc(O)c(-n2nc3ccccc3n2)c1", "label 0"],
  ["OC1CCC(C2CCCCC2)CC1 (centres undefined)", "label 0"],
  ["c1ccc2c(c1)ccc1ccccc12", "label 0"],
  ["Oc1cc2ccccc2c2ccccc12", "label 1"],
  ["Cc1cc(CCN2CCN(c3nsc4ccccc34)CC2)cc2c1NC(=O)CC2(C)C", "label 1"],
  ["c1ccc2c(c1)Cc1ccccc1-2", "label 0"],
  ["NC(=O)N1C(=O)C(C(=O)c2cc(Cl)cs2)c2cc(F)c(Cl)cc21 (centres undefined)", "label 0"],
  ["Nc1cccc2c(N)cccc12", "label 0"],
  ["CCCCC(CC)COC(=O)CCCCC(=O)OCC(CC)CCCC (centres undefined)", "label 0"],
  ["CCc1ccc(CCOc2ccc(CC3SC(=O)NC3=O)cc2)nc1 (centres undefined)", "label 0"],
  ["CCCCCCCC(=O)O", "label 0"],
  ["Oc1cccc(O)c1", "label 0"],
  ["ClC1=C(Cl)C(Cl)(Cl)C(Cl)=C1Cl", "label 0"],
  ["COC(=O)CCCCC(=O)OC", "label 0"],
  ["N#C[C@@H]1CC(F)(F)CN1C(=O)CNC1CC2CCC(C1)N2c1ncccn1 (some centres undefined)", "label 0"],
  ["CC(=O)NC1(c2cccc(F)c2)CCN(CC[C@@]2(c3ccc(Cl)c(Cl)c3)CN(c3ccccc3)C(=O)CO2)CC1", "label 1"],
  ["O=C1OC2(c3ccccc31)c1cc(Br)c(O)c(Br)c1Oc1c2cc(Br)c(O)c1Br", "label 0"],
  ["NC(=O)N(O)[C@@H]1C=C[C@H](Oc2cccc(Oc3ccc(F)cc3)c2)C1", "label 0"]
]}

* * *

- Read-out: Macrophage colony-stimulating factor (MCSF), CSF1 (gene 1435)
- assayNotes: BSK_hDFCGF_MCSF: BioMAP Diversity Plus: hDFCGF Assay for Macrophage colony-stimulating factor (MCSF) Biomarker Activity (AID 2283060)
- experimentalContext: primary human foreskin fibroblasts; actives raise or lower the signal
The source made the active and inactive calls. Rule for the calls: active = hit-call score of the fitted dose curve at least 0.9, where 1 is the maximum; inactive = score below 0.9.
Outcome codes: active, inactive

{"columns": ["compound", "assignedLabel"],
 "data": [
  ["COC(=O)CCCCC(=O)OC", "inactive"],
  ["COCC(C)O (stereo not drawn)", "inactive"],
  ["CN1CCC[C@H]1c1cccnc1", "inactive"],
  ["O=[N+]([O-])c1ccc(O)cc1", "inactive"],
  ["CCC(C)(C)C1CCC(O)CC1 (stereo not drawn)", "inactive"],
  ["CC(C)(C)c1cc(C(C)(C)C)c(O)c(C(C)(C)C)c1", "active"],
  ["CC(=O)NC1(c2cccc(F)c2)CCN(CC[C@@]2(c3ccc(Cl)c(Cl)c3)CN(c3ccccc3)C(=O)CO2)CC1", "active"],
  ["CN1CCN(c2ccccc2/C=C2\\SCCN(c3ccc(Cl)c(Cl)c3)C2=O)CC1", "active"],
  ["COCC(C)OCC(C)O (stereo not drawn)", "inactive"],
  ["ClC1=C(Cl)C(Cl)(Cl)C(Cl)=C1Cl", "active"],
  ["CCCCCCCCCCCCc1ccccc1S(=O)(=O)O", "active"],
  ["c1ccc2c(c1)ccc1ccccc12", "inactive"],
  ["CC(C)CCCCCCOC(=O)CCCCC(=O)OCCCCCCC(C)C", "inactive"]
]}

* * *

- Read-out: Signal transducer and activator of transcription 3 (Homo sapiens)
- assayNotes: LTEA_HepaRG_STAT3: Life Technologies and Expression Analysis (LTEA) Assay for Signal transducer and activator of transcription (STAT3) using HepaRG (AID 2283529)
- experimentalContext: mRNA level, 48 h; actives raise or lower the signal
Active and inactive are the calls of the source. How the source made its calls: active means hit-call score of the fitted dose curve at least 0.9, where 1 is the maximum; inactive means score below 0.9.
Classes used: true = active, false = inactive

{"columns": ["compound", "assignedLabel"],
 "data": [
  ["O=[N+]([O-])c1ccc(O)cc1", "false"],
  ["CN(C)C=O", "false"],
  ["CCN(CC)CCNc1ccc(CNC=O)c2sc3ccc(OC)cc3c(=O)c12", "true"],
  ["COCC(C)O (configuration not stated)", "false"],
  ["CCCOC(=O)c1ccc(O)cc1", "false"],
  ["CC[C@H](C)[C@@H](C(=O)O)n1sc2ccccc2c1=O", "false"],
  ["OCCC(F)(F)C(F)(F)C(F)(F)C(F)(F)C(F)(F)C(F)(F)C(F)(F)C(F)(F)F", "false"],
  ["CCCCCCCCC(=O)O", "false"],
  ["Cc1oc(-c2ccccc2)nc1CCOc1ccc(C[C@H](Nc2ccccc2C(=O)c2ccccc2)C(=O)O)cc1", "true"],
  ["OCCC(F)(F)C(F)(F)C(F)(F)C(F)(F)C(F)(F)C(F)(F)F", "false"],
  ["OC1CCCCC1", "false"],
  ["CC1=C(/C=C/C(C)=C/C=C/C(C)=C/C(=O)O)C(C)(C)CCC1", "false"],
  ["CCCCCCC(=O)O", "false"],
  ["N#C[C@@H]1CC(F)(F)CN1C(=O)CNC1CC2CCC(C1)N2c1ncccn1 (some centres not stated)", "true"],
  ["ClC1=C(Cl)C(Cl)(Cl)C(Cl)=C1Cl", "false"],
  ["CC(C)(C)c1ccc(O)c(C(C)(C)C)c1", "true"],
  ["CN1CCC[C@H]1c1cccnc1", "false"],
  ["CC(C)CCCCCCOC(=O)CCCCC(=O)OCCCCCCC(C)C", "false"],
  ["OC1CCC(C2CCCCC2)CC1 (configuration not stated)", "false"],
  ["c1ccc2c(c1)ccc1ccccc12", "false"],
  ["CCCCCCCCCCCCCCCS(=O)(=O)Oc1ccccc1", "false"],
  ["COc1ccc([N+](=O)[O-])cc1N", "false"],
  ["CCC(=C(c1ccc(O)cc1)c1ccc(OCCN(C)C)cc1)c1ccccc1", "false"],
  ["CCCCCCCCOC(=O)CCCCCCCCC(=O)OCCCCCCCC", "false"],
  ["CCCCCCCC(=O)O", "false"],
  ["C#C[C@]1(O)CC[C@H]2[C@@H]3CCC4=CC(=O)CC[C@@H]4[C@H]3CC[C@@]21C", "false"],
  ["CCCCC(CC)COC(=O)CCCCC(=O)OCC(CC)CCCC (configuration not stated)", "false"]
]}
